assay: MRT in Sprague-Dawley rat plasma at 20 mg/kg, IP after 0.083 to 24 hrs by LC-MS/MS analysis; format: ADME, organism-based; conditions: time 0.083-24 hrs

{"columns": ["Smiles Text", "MRT"],
 "data": [
  ["Cc1ncsc1-c1ccc([C@H](C)NC(=O)[C@@H]2C[C@@H](O)CN2C(=O)[C@@H](NC(=O)CCCCCCCCN2CCN(S(=O)(=O)c3ccc(NC(=O)NCc4cccnc4)cc3)CC2)C(C)(C)C)cc1", "7.51 h"]
]}

----------
experiment: Cmax in Sprague-Dawley rat plasma at 5 mg/kg, iv after 0.083 to 24 hrs by LC-MS/MS analysis; type: ADME, organism-based; set-up: dose 5 mg/kg, time upper 24 hrs, time lower 0.083 hrs, route iv

{"columns": ["Smiles Text", "Unit Descriptor", "Cmax"],
 "data": [
  ["Cc1ncsc1-c1ccc([C@H](C)NC(=O)[C@@H]2C[C@@H](O)CN2C(=O)[C@@H](NC(=O)CCCCCCCCN2CCN(S(=O)(=O)c3ccc(NC(=O)NCc4cccnc4)cc3)CC2)C(C)(C)C)cc1", "ng/mL", 3190]
]}

The measurements presented in this section are drawn from ChEMBL document CHEMBL5316285.
